Provide the recorded EC50 of IFNγ release, mouse splenocytes for the entries that follow.
- measurement target: T1, Avi/HisMsIL18BPd (recombinant mouse IL-18BP with Avi and poly-His tags) (mouse, biotinylated with BirA on the Avi tag in some assays)
- T1 chain: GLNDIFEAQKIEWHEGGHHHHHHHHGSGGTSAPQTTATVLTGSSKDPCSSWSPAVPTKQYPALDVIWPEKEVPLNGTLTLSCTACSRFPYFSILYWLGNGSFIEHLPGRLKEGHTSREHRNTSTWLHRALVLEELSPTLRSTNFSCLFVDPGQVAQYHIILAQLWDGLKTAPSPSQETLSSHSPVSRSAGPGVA
- method description: cell-based or functional assay
Quick note: unit goes after the number.

# return EC50 of IFNγ release, mouse splenocytes for each item in the list
1. anti-IL-18BP antibody variant BP-04.08 (antibody, V domains shown) VH: QVQLVQSGAEVKKPGASVKVSCKASGYTFTDYDMHWVRQAPGQGLEWMGIYSTYYGDVSYAQKKQGRVTMTRDKSTSTVYMELSSLRSEDTAVYYCARSGTYNYGTRESHALDYWGQGTLVTVSS VL: DIQMTQSPSSVSASVGDRVTITCRASDNVYSNLAWYQQKPGKAPKLLIYGAISLADGVPSRFSGSGSGTDFTLTISSLQPEDFATYYCQHFWGNPYTFGQGTKLEIK
2. anti-IL-18BP antibody variant BP-04.10 (antibody, V domains shown) VH: QVQLVQSGAEVKKPGASVKVSCKASGYTFTDYDMHWVRQAPGQGLEWMGIYSTYYGVVSYAQKFQGRVTMTRDKSTSTVYMELSSLRSEDTAVYYCARSGTYYYGTRESHPLDYWGQGTLVTVSS VL: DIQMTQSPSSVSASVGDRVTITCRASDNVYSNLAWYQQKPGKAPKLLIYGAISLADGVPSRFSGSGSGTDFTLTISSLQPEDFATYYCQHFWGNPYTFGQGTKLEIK
3. anti-IL-18BP antibody variant BP-04.07 (antibody, V domains shown) VH: QVQLVQSGAEVKKPGASVKVSCKASGYTFTDYDMHWVRQAPGQGLEWMGIISTYYGVVSYAQKKQGRVTMTRDKSTSTVYMELSSLRSEDTAVYYCARSGTYNYGTRESHALDYWGQGTLVTVSS VL: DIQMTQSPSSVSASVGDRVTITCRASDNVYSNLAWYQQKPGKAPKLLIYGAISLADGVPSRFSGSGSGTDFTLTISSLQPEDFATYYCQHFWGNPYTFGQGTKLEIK
4. anti-IL-18BP antibody variant BP-04.32 (antibody, V domains shown) VH: QVQLVQSGAEVKKPGASVKVSCKASGYTFTDYDMHWVRQAPGQGLEWMGIYSTYYGDVSYAQKFQGRVTMTRDKSTSTVYMELSSLRSEDTAVYYCARSGTYYYGTRESHALDYWGQGTLVTVSS VL: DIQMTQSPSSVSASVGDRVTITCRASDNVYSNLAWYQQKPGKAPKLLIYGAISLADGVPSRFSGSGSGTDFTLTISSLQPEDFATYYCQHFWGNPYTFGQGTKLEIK
5. anti-IL-18BP antibody variant BP-04.01 (antibody, V domains shown) VH: QVQLVQSGAEVKKPGASVKVSCKASGYTFTDYDMWVRQAPGQGLEWMGIISTYYGDVSYAIKFQGRVTMTRDKSTSTVYMELSSLRSEDTAVYYCARSGTYYYGTRESALDYWGQGTLVTVSS VL: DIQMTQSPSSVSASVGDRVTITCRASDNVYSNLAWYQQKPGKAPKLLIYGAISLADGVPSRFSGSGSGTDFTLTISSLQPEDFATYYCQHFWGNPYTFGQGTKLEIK

Solution:
1. 94.1 nM
2. 501 nM
3. 51.9 nM
4. 9.61 nM
5. 1.67 nM

# return EC50 of IFNγ release, mouse splenocytes for each item in the list
1. anti-IL-18BP antibody variant BP-04.20 (antibody, V domains shown) VH: QVQLVQSGAEVKKPGASVKVSCKASGYTFTDYDMHWVRQAPGQGLEWMGIISTYYGVVSYAQKFQGRVTMTRDKSTSTVYMELSSLRSEDTAVYYCARSGTYYYGTRESHPLDYWGQGTLVTVSS VL: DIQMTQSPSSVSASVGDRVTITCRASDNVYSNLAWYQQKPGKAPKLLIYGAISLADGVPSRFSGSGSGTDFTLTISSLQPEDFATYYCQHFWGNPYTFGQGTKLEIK
2. anti-IL-18BP antibody variant BP-04.18 (antibody, V domains shown) VH: QVQLVQSGAEVKKPGASVKVSCKASGYTFTDYDMHWVRQAPGQGLEWMGIISTYYGDVSYAQKKQGRVTMTRDKSTSTVYMELSSLRSEDTAVYYCARSGTYNYGTRESHALDYWGQGTLVTVSS VL: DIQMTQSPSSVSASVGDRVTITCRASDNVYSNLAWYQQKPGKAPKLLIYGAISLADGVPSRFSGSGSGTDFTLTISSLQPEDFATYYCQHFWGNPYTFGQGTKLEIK
3. anti-IL-18BP antibody variant BP-04.25 (antibody, V domains shown) VH: QVQLVQSGAEVKKPGASVKVSCKASGYTFTDYDMHWVRQAPGQGLEWMGIYSTYYGDVSYAQKFQGRVTMTRDKSTSTVYMELSSLRSEDTAVYYCARSGTYNYGTRESHALDYWGQGTLVTVSS VL: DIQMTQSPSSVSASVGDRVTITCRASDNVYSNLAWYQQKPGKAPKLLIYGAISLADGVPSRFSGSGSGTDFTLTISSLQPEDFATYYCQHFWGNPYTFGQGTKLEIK
4. anti-IL-18BP antibody variant BP-04.28 (antibody, V domains shown) VH: QVQLVQSGAEVKKPGASVKVSCKASGYTFTDYDMHWVRQAPGQGLEWMGIISTYYGDVSYAQKFQGRVTMTRDKSTSTVYMELSSLRSEDTAVYYCARSGTYYYGTRESHPLDYWGQGTLVTVSS VL: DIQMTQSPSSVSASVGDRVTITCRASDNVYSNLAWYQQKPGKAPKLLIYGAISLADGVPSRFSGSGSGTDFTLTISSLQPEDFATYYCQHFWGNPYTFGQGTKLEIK
5. anti-IL-18BP antibody variant BP-04.17 (antibody, V domains shown) VH: QVQLVQSGAEVKKPGASVKVSCKASGYTFTDYDMHWVRQAPGQGLEWMGIISTYYGDVSYAQKKQGRVTMTRDKSTSTVYMELSSLRSEDTAVYYCARSGTYYYGTRESHPLDYWGQGTLVTVSS VL: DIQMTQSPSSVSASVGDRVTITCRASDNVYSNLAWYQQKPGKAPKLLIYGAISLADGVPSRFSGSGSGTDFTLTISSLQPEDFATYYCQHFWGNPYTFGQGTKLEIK

Solution:
["28.7 nM", "28.4 nM", "28.9 nM", "134 nM", "14.6 nM"]
